Listed next: entries and their corresponding protein stability index.
B1: CHMP4C (parent)
chain: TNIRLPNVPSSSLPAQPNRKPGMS

# Variants of: B1
# test protocol: protein stability index of a GFP-peptide fusion (GPS, HEK-293T) (PSI 1-6); higher = more stable;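 further: lentivirally expressed fusions sorted by FACS into six bins by GFP to DsRed ratio, PSI derived from sequencing read proportions per bin multiplied by bin number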
# test parameters: c terminus: a fixed tail appended
Output spec: single numeric token, no unit.

Completed entries (count: 5):
>>> df
   mutation_notation   val
0               K20C   4.3
1               S10T   4.1
2               S12D  4.67
3                L5S  4.18
4               S12K  4.44

Q: Return protein stability index (reported value) for this variant: Q16R
Ans: 5.25

Q: Return protein stability index (reported value) for this variant: R4M
Ans: 4.51

Q: Return protein stability index (reported value) for this variant: Q16V
Ans: 4.71

Q: Return protein stability index (reported value) for this variant: N18I
Ans: 4.3

Q: Return protein stability index (reported value) for this variant: R19Q
Ans: 4.62

Q: Return protein stability index (reported value) for this variant: R19C
Ans: 4.27
